Data credit: PubChem BioAssay (NCI)

Tested on: SR leukemia
protocol_description: NCI tumour cell line growth inhibition, 48 h
Hi there, I'd appreciate the recorded TGI for every entry that follows.

Qu. Using the record for O=C1OC(=O)C2C3C=CC(C12)C1C2C=CC2C31 (centres undefined) , report its TGI.
Ans. > 100 µM

Qu. What about this compound? "C/C(N=NS(=O)(=O)c1ccc([N+](=O)[O-])cc1)=C1\C=CC=CN1O"
Ans. > 100 µM

Qu. What about this compound? "O=C(NCCCl)SCCO"
Ans. > 100 µM

Qu. What about this compound? "O=[N+]([O-])c1cc2no[n+]([O-])c2cc1N1CCCCC1"
Ans. 12.2 µM

Qu. What about this compound? "CSc1nc(N)c2c(-c3ccccc3)c3c(nc2n1)CCCC3"
Ans. > 100 µM

Qu. What about this compound? "Nc1nc(Cl)c(Cl)c(NCC2(O)CCC2)n1"
Ans. > 100 µM

Qu. What about this compound? "O=c1[nH]c(=O)n(COCc2ccccc2)cc1Nc1ccc(Br)cc1"
Ans. > 100 µM

Qu. What about this compound? "Cn1cc(C2=C(Nc3ccccc3)C(=O)NC2=O)c2ccccc21"
Ans. > 25 µM

Qu. What about this compound? "COc1nc2ccc(COc3ccc(C(=O)O)cc3)cc2nc1OC"
Ans. > 100 µM
